pIC50: −log10 of the molar value.
Literature survey of pIC50 (system: Wee1-like protein kinase (Homo sapiens)).
reportedEndpoint: pIC50

>>> print(df.to_string())
                                   compound  censoringqualifier  testvalue
0  O=C1c2cnc(Nc3ccc(N4CCNCC4)c(Cl)c3)nc2SCN1c1c(Cl)cccc1Cl                   =       6.47
1  CC(C)n1c(=O)c2cnc(Nc3ccc4c(c3)CCNC4)nc2n1-c1nc(C(C)(C)C)cs1                   =       8.40
2  CC(C)n1c(=O)c2cnc(Nc3ccc4c(c3)CCNC4)nc2n1-c1ccn(C(C)(C)C)n1                   =       7.32
3  CN1CCN(c2ccc(Nc3ncc4c(n3)OCN(c3c(Cl)cccc3Cl)C4=O)cc2CO)CC1                   =       7.32
4  Cc1cc(Nc2ncc3c(n2)N(C)CN(c2c(Cl)cccc2Cl)C3=O)ccc1N1CCNCC1                   ≥       8.00
5  CC(C)(F)c1cccc(-n2c3nc(Nc4ccc5c(c4)CCNC5)ncc3c(=O)n2C2CC2)n1                   =       8.05
6  CNCc1cc(Nc2ncc3c(n2)N(C)CN(c2c(Cl)cccc2Cl)C3=O)ccc1F                   ≤       7.00
7  Cc1cc2cnc(Nc3ccc(N4CCC5(CCN(C)CC5)CC4)cc3)nc2n1-c1cccc(C(C)(C)O)n1                   =       9.04
8  CC1CN(c2ccc(Nc3ncc4c(n3)SCN(c3c(Cl)cccc3Cl)C4=O)cc2Cl)CCN1 (stereo not shown)                   =       6.45
9  C=CCn1c(=O)c2cnc(Nc3ccc4c(c3)CN(C(C)C)CC43CC3)nc2n1-c1cccc(C(C)(C)O)n1                   >       8.00

###

// note: IC50 values for Wee1-like protein kinase (Homo sapiens) were reported in different studies
reportedEndpoint: IC50

>>> print(df.to_string())
                                    compound  reportedendpoint       testvalue
 0  [2H]C([2H])([2H])N1CN(c2c(Cl)cccc2Cl)C(=O)c2cnc(Nc3ccc(N4CCN[C@H](C)C4)cc3)nc21              IC50         ≤ 10 nM
 1  CC(C)n1c(=O)c2cnc(Nc3ccc4c(c3)CCNC4)cc2n1-c1ccnc(C(C)(C)C)c1              IC50          179 nM
 2  CN1CCN(c2ccc(Nc3ncc4cnn(-c5cccc(C(C)(C)O)c5)c4n3)cn2)CC1              IC50  100 to 1000 nM
 3  C=CCn1c(=O)c2cnc(Nc3ccc4c(c3)[C@H](C)NCC4(C)C)nc2n1-c1cccc(C(C)(C)O)n1 (single isomer, unassigned)              IC50         < 10 nM
 4  CN(c1ccc(N2CCNCC2)cc1)c1ncc2c(n1)OCN(c1c(Cl)cccc1Cl)C2=O              IC50       > 5000 nM
 5  CNCc1cc(Nc2ncc3c(n2)N(C)CN(c2c(Cl)cccc2Cl)C3=O)ccc1N1CCCC1              IC50    10 to 100 nM
 6  CC(C)n1c(=O)c2cnc(Nc3ccc4c(c3)CCNC4)nc2n1-c1ccsc1              IC50           10 nM
 7  C[C@@H]1CN(c2ccc(Nc3ncc4c(n3)N(C)CN(c3c(Cl)cccc3Cl)C4=O)cc2)CCN1C              IC50    10 to 100 nM
 8  CN1CN(c2c(F)cccc2Cl)C(=O)c2cnc(Nc3cccc(CO)c3)nc21              IC50        ≥ 100 nM
 9  CN(C)CC(=O)N1CCc2cc(Nc3ncc4c(n3)OCN(c3c(Cl)cccc3Cl)C4=O)ccc2C1              IC50          145 nM
10  CCn1c(=O)c2cnc(Nc3ccc4c(c3)CCNC4(C)C)nc2n1-c1cccc(C2(C#N)CC2)n1              IC50            1 nM
11  CCn1c(=O)c2cnc(Nc3ccc4c(c3)CCNC4)nc2n1-c1nc(C(C)(C)C)cs1              IC50            7 nM
12  CN1CCN(c2ccc(Nc3ncc4cnn(-c5ccc(F)c(C(C)(C)O)c5)c4n3)cc2)CC1              IC50    10 to 100 nM
13  CC(=O)N1CCN(c2ccc(Nc3ncc4c(n3)N(C)CN(c3c(Cl)cccc3Cl)C4=O)cc2CN(C)C)CC1              IC50         ≤ 10 nM
14  CCCc1cc2cnc(Nc3ccc(N4CCC5(CCN(C)CC5)CC4)cc3)nc2n1-c1cccc(C(C)(C)O)n1              IC50         1.03 nM
15  CN1CCc2ccc(Nc3ncc4cnn(-c5cccc(N=S(C)(C)=O)n5)c4n3)cc2C1              IC50      1 to 10 nM

###

Target or system Wee1-like protein kinase (Homo sapiens); metric pIC50; compiled from varied reports.
pIC50: −log10 of the molar value.
reportedEndpoint: pIC50

>>> df
                                   compound  censoringqualifier  testvalue
0  C=CCn1c(=O)c2cnc(Nc3ccc4c(c3)CNCC4)nc2n1-c1ccnc(C(C)(C)C)c1                   =       8.40
1  CC1(C)CNCc2cc(Nc3ncc4c(n3)OCN(c3ccc(F)cc3Cl)C4=O)ccc21                   =       6.76
2  COC[C@H]1CN(c2ccc(Nc3ncc4c(n3)N(C)CN(c3c(Cl)cccc3Cl)C4=O)cc2C(O)C(F)F)CCN1 (single isomer, unassigned)                   ≥       8.00
3  CN1CN(c2c(Cl)cccc2Cl)C(=O)c2cnc(Nc3ccc(N4CCN(C5CC5)CC4)cc3)nc21                   ≤       7.00
4  CN1CCN(c2ccc(Nc3ncc4c(n3)N(C)CN(c3c(Cl)cccc3Cl)C4=O)cc2CO)CC1                   ≥       8.00
5  CC(C)n1c(=O)c2cnc(Nc3ccc4c(c3)CCN(C)C4)nc2n1-c1ccnc(C(C)(C)C)c1                   =       8.30
6  CC(C)n1c(=O)c2cnc(Nc3ccc4c(c3)CNCC4)nc2n1-c1cccc(C2CC2)n1                   =       8.70

###

Please find below IC50 measurements for Wee1-like protein kinase (Homo sapiens), combined from several publications.
reportedEndpoint: IC50

                                   molecule       testvalue
0  CN1CN(c2c(Cl)cccc2Cl)C(=O)c2cnc(Nc3ccc(N4CCNCC4)c(CNCC(F)(F)F)c3)nc21       ≤ 0.01 µM
1  CN1CCN(c2ccc(Nc3ncc4cnn(-c5ccc6ncc(C(C)(C)O)n6c5)c4n3)cc2)CC1  0.01 to 0.1 µM
2  COCC(C)(C)c1cccc(-n2c3nc(Nc4ccc5c(c4)CNCC5)ncc3c(=O)n2C(C)C)n1        0.004 µM
3  Cc1nc2ccc(-n3ncc4cnc(Nc5ccc(N6CCN(C)CC6)cc5)nc43)cc2n1C  0.01 to 0.1 µM

###

// molecules with reported IC50 on Wee1-like protein kinase (Homo sapiens, UniProt P30291), multi-publication
reportedEndpoint: IC50 (nM)

>>> df
                                   molecule                              systemtested  censoringqualifier  testvalue
0  CCn1c(=O)c2cnc(Nc3ccc4c(c3)CNCC4)nc2n1-c1ccc(F)c(C(C)(C)O)n1  Wee1-like protein kinase (Homo sapiens, UniProt P30291)                   =          8
1  CN1CN(c2c(Cl)cccc2Cl)C(=O)c2cnc(Nc3ccc(N4CCNCC4)c(CO)c3)nc21  Wee1-like protein kinase (Homo sapiens, UniProt P30291)                   ≤         10
2  CN1CN(c2c(Cl)cccc2Cl)C(=O)c2cnc(Nc3ccc(N4CCNCC4)c(C#N)c3)nc21  Wee1-like protein kinase (Homo sapiens, UniProt P30291)                   ≤         10
3  O=C1c2cnc(Nc3ccc4[nH]ncc4c3)nc2OCN1c1c(Cl)cccc1Cl  Wee1-like protein kinase (Homo sapiens, UniProt P30291)                   =        777
4  C[C@@H]1CNCCN1c1ccc(Nc2ncc3c(n2)OCN(c2c(Cl)cccc2Cl)C3=O)cc1  Wee1-like protein kinase (Homo sapiens, UniProt P30291)                   =         41
5  C[C@@H]1CN(c2ccc(Nc3ncc4c(n3)OCN(c3c(Cl)cccc3Cl)C4=O)cc2)CCN1  Wee1-like protein kinase (Homo sapiens, UniProt P30291)                   =         87
